test-name: Radiotracer production data: stability of the product to in vivo experiments
Format: physicochemical
Kindly supply the reported Stability of the product to in vivo experiments values for the records listed here.

Which value of Stability of the product to in vivo experiments has been reported for Cc1c(COc2cc(OCc3cncc(S(C)(=O)=O)c3)c(CN[C@@H](CS(=O)(=O)O)C(=O)NCCP(=O)(O)O)cc2Cl)cccc1-c1cccc(OCc2cn(CCCN3CCN(C(=O)[C@H](CS(=O)(=O)O)NC(=O)CC[C@H](C(=O)O)N4CCN(CC(=O)O)CCN(CC(=O)O)CC4)CC3)nn2)c1C.[64Cu+2] [[^64Cu]Cu-5] in the records?
> 99%

Cc1c(COc2cc(OCc3cncc(S(C)(=O)=O)c3)c(CN[C@@H](CS(=O)(=O)O)C(=O)NCCP(=O)(O)O)cc2Cl)cccc1-c1cccc(OCc2cn(CCCN3CCN(C(=O)[C@H](CP(=O)(O)O)NC(=O)CC[C@H](C(=O)O)N4CCN(CC(=O)O)CCN(CC(=O)O)CC4)CC3)nn2)c1C.[64Cu+2] [[^64Cu]Cu-6] ?
> 99%

Cc1c(COc2cc(OCc3cncc(C#N)c3)c(CN[C@@H](CS(=O)(=O)O)C(=O)NCCS(=O)(=O)O)cc2Cl)cccc1-c1cccc(OCc2cn(CCCN3CCN(C(=O)[C@H](CS(=O)(=O)O)NC(=O)CC[C@H](C(=O)O)N4CCN(CC(=O)O)CCN(CC(=O)O)CC4)CC3)nn2)c1C.[64Cu+2] [[^64Cu]Cu-1] ?
> 99%

Cc1c(COc2cc(OCc3cncc(S(C)(=O)=O)c3)c(CN[C@@H](CS(=O)(=O)O)C(=O)NCCS(=O)(=O)O)cc2Cl)cccc1-c1cccc(OCc2cn(CCCN3CCN(C(=O)[C@H](CS(=O)(=O)O)NC(=O)CC[C@H](C(=O)O)N4CCN(CC(=O)O)CCN(CC(=O)O)CC4)CC3)nn2)c1C.[64Cu+2] [[^64Cu]Cu-3] ?
> 99%

Cc1c(COc2cc(OCc3cncc(S(C)(=O)=O)c3)c(CN[C@@H](CS(=O)(=O)O)C(=O)NCCP(=O)(O)O)cc2Cl)cccc1-c1cccc(OCc2cn(CCCN3CCN(C(=O)CC[C@H](C(=O)O)N4CCN(CC(=O)O)CCN(CC(=O)O)CC4)CC3)nn2)c1C.[64Cu+2] [[^64Cu]Cu-4] ?
> 99%

###

Kindly supply the reported SUVmax PC3 PD-L1 overexpressing tumor +block values for the records listed here.
Tested on: PC3 PD-L1-overexpressing tumor
test-name: Small-animal PET, uptake in PD-L1-overexpressing tumor
study-conditions: 1.5 (1–2) hours p.i.; blocker i.v. before tracer: Cu-1 100 nmol 1, Cu-2 100 nmol 2, Cu-3 1000 nmol 4, Cu-4 500 nmol 4, Cu-6 250 nmol 1 (~5 min prior), Cu-5 100 nmol 5 (~30 min prior)
Form rule: numeric answer, no unit written next to it.

Which value of SUVmax PC3 PD-L1 overexpressing tumor +block has been reported for Cc1c(COc2cc(OCc3cncc(S(C)(=O)=O)c3)c(CN[C@@H](CS(=O)(=O)O)C(=O)NCCS(=O)(=O)O)cc2Cl)cccc1-c1cccc(OCc2cn(CCCN3CCN(C(=O)[C@H](CS(=O)(=O)O)NC(=O)CC[C@H](C(=O)O)N4CCN(CC(=O)O)CCN(CC(=O)O)CC4)CC3)nn2)c1C.[64Cu+2] [[^64Cu]Cu-3] in the records?
1.0

Cc1c(COc2cc(OCc3cncc(S(C)(=O)=O)c3)c(CN[C@@H](CS(=O)(=O)O)C(=O)NCCP(=O)(O)O)cc2Cl)cccc1-c1cccc(OCc2cn(CCCN3CCN(C(=O)CC[C@H](C(=O)O)N4CCN(CC(=O)O)CCN(CC(=O)O)CC4)CC3)nn2)c1C.[64Cu+2] [[^64Cu]Cu-4] ?
0.85

Cc1c(COc2cc(OCc3cncc(C#N)c3)c(CN[C@@H](CS(=O)(=O)O)C(=O)NCCS(=O)(=O)O)cc2Cl)cccc1-c1cccc(OCc2cn(CCCN3CCN(C(=O)[C@H](CS(=O)(=O)O)NC(=O)CC[C@H](C(=O)O)N4CCN(CC(=O)O)CCN(CC(=O)O)CC4)CC3)nn2)c1C.[64Cu+2] [[^64Cu]Cu-1] ?
1.3

Cc1c(COc2cc(OCc3cncc(S(C)(=O)=O)c3)c(CN[C@@H](CS(=O)(=O)O)C(=O)NCCP(=O)(O)O)cc2Cl)cccc1-c1cccc(OCc2cn(CCCN3CCN(C(=O)[C@H](CP(=O)(O)O)NC(=O)CC[C@H](C(=O)O)N4CCN(CC(=O)O)CCN(CC(=O)O)CC4)CC3)nn2)c1C.[64Cu+2] [[^64Cu]Cu-6] ?
2.28

Cc1c(COc2cc(OCc3cncc(S(C)(=O)=O)c3)c(CN[C@@H](CS(=O)(=O)O)C(=O)NCCP(=O)(O)O)cc2Cl)cccc1-c1cccc(OCc2cn(CCCN3CCN(C(=O)[C@H](CS(=O)(=O)O)NC(=O)CC[C@H](C(=O)O)N4CCN(CC(=O)O)CCN(CC(=O)O)CC4)CC3)nn2)c1C.[64Cu+2] [[^64Cu]Cu-5] ?
1.75

###

target-entity: PD-L1 (Homo sapiens, UniProt Q9NZQ7)
Construct: expressed in transfected cells; host or cells: PC3 cells (human prostate carcinoma), stably transduced
Sequence (Q9NZQ7 19-290): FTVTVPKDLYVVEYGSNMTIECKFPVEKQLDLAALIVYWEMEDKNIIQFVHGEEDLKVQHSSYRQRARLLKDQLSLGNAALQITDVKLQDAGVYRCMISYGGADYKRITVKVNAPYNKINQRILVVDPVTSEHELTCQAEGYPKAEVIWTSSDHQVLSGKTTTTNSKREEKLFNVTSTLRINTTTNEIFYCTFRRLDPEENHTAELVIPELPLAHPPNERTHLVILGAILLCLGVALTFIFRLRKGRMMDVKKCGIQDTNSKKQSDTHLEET
test-name: Real-time radioligand binding (LigandTracer) on PC3 PD-L1 cells
study-conditions: real-time binding, medium + 2.5% BSA, n = 1
measure: Kd (nM)
// return numeric value only (unit: nM, not printed)

# returns recorded Kd (system: PD-L1 (Homo sapiens, UniProt Q9NZQ7)) for Cc1c(COc2cc(OCc3cncc(S(C)(=O)=O)c3)c(CN[C@@H](CS(=O)(=O)O)C(=O)NCCS(=O)(=O)O)cc2Cl)cccc1-c1cccc(OCc2cn(CCCN3CCN(C(=O)[C@H](CS(=O)(=O)O)NC(=O)CC[C@H](C(=O)O)N4CCN(CC(=O)O)CCN(CC(=O)O)CC4)CC3)nn2)c1C.[64Cu+2] [[^64Cu]Cu-3]
54.3

Cc1c(COc2cc(OCc3cncc(S(C)(=O)=O)c3)c(CN[C@@H](CS(=O)(=O)O)C(=O)NCCP(=O)(O)O)cc2Cl)cccc1-c1cccc(OCc2cn(CCCN3CCN(C(=O)[C@H](CS(=O)(=O)O)NC(=O)CC[C@H](C(=O)O)N4CCN(CC(=O)O)CCN(CC(=O)O)CC4)CC3)nn2)c1C.[64Cu+2] [[^64Cu]Cu-5] ?
100

Cc1c(COc2cc(OCc3cncc(S(C)(=O)=O)c3)c(CN[C@@H](CS(=O)(=O)O)C(=O)NCCP(=O)(O)O)cc2Cl)cccc1-c1cccc(OCc2cn(CCCN3CCN(C(=O)CC[C@H](C(=O)O)N4CCN(CC(=O)O)CCN(CC(=O)O)CC4)CC3)nn2)c1C.[64Cu+2] [[^64Cu]Cu-4] ?
744

Cc1c(COc2cc(OCc3cncc(C#N)c3)c(CN[C@@H](CS(=O)(=O)O)C(=O)NCCS(=O)(=O)O)cc2Cl)cccc1-c1cccc(OCc2cn(CCCN3CCN(C(=O)[C@H](CS(=O)(=O)O)NC(=O)CC[C@H](C(=O)O)N4CCN(CC(=O)O)CCN(CC(=O)O)CC4)CC3)nn2)c1C.[64Cu+2] [[^64Cu]Cu-1] ?
119
